PROTOCOL_NOTES: clinical
SETUP_CONDITIONS: human, in vivo, iv, t1/2
RECORDED_ENDPOINT: log10 of half-life (log10 of the value in h)
Parameter value (number): base-10 log of half-life in h.

>  <MOLECULE>
CCCC(C)(COC(N)=O)COC(N)=O [MEPROBAMATE]

>  <OBSERVED_MEASUREMENT>
1.15

$$$$
>  <MOLECULE>
O=c1n(CCCN2CCN(c3cccc(Cl)c3)CC2)nc2ccccn12 [TRAZODONE]

>  <OBSERVED_MEASUREMENT>
0.86

$$$$
>  <MOLECULE>
CN(C)CCC=C1c2ccccc2CCc2ccccc21 [AMITRIPTYLINE]

>  <OBSERVED_MEASUREMENT>
1.23

$$$$

Task: If you can, please state the reported log10 of half-life value of CCOc1ccc2ccccc2c1C(=O)N[C@@H]1C(=O)N2[C@@H]1SC(C)(C)[C@@H]2C(=O)O [NAFCILLIN] .
Result: -0.15

Task: Cool, now CCCN(CCC)S(=O)(=O)c1ccc(C(=O)O)cc1 [PROBENECID]
Result: 0.77

----------
PROTOCOL_NOTES: clinical
SETUP_CONDITIONS: human, in vivo, iv, CL
RECORDED_ENDPOINT: clearance (mL/min/kg)
Write it as a number; the unit mL/min/kg goes unstated.

// solved cases for clearance follow
>  <COMPOUND>
CCOC(=O)Nc1ccc(NCc2ccc(F)cc2)nc1N

>  <OBSERVED_MEASUREMENT>
1.6

$$$$
>  <COMPOUND>
CN(C)[C@@H]1C(O)=C(C(N)=O)C(=O)[C@@]2(O)C(O)=C3C(=O)c4c(O)ccc(Cl)c4[C@@](C)(O)[C@H]3C[C@@H]12

>  <OBSERVED_MEASUREMENT>
2

$$$$
>  <COMPOUND>
CN1[C@@H]2CC[C@H]1C[C@@H](OC(=O)c1c[nH]c3ccccc13)C2

>  <OBSERVED_MEASUREMENT>
26

$$$$
>  <COMPOUND>
CC(C)c1cccc(C(C)C)c1O

>  <OBSERVED_MEASUREMENT>
36

$$$$
>  <COMPOUND>
CCN1C[C@H]2CN(C)C[C@H](C1)C2OC(=O)c1ccc(Cl)cc1 (stereo not given in full)

>  <OBSERVED_MEASUREMENT>
17

$$$$
>  <COMPOUND>
CCCNC(=O)NS(=O)(=O)c1ccc(Cl)cc1 [CHLORPROPAMIDE]

>  <OBSERVED_MEASUREMENT>
0.045

$$$$
>  <COMPOUND>
O=C1CN=C(c2ccccc2)c2cc([N+](=O)[O-])ccc2N1

>  <OBSERVED_MEASUREMENT>
0.86

$$$$
>  <COMPOUND>
COc1cc2c(cc1OC)CN(c1cc(N)c3cc(OC)c(OC)cc3n1)CC2

>  <OBSERVED_MEASUREMENT>
14

$$$$
>  <COMPOUND>
CNS(=O)(=O)Cc1ccc2[nH]cc(CCN(C)C)c2c1

>  <OBSERVED_MEASUREMENT>
19

$$$$
>  <COMPOUND>
CC(CCc1ccc2c(c1)OCO2)NCC(O)c1ccc(O)c(C(N)=O)c1 (stereo not given)

>  <OBSERVED_MEASUREMENT>
16

$$$$

Task: If you can, please state the reported clearance value of CCN(CC)CCNC(=O)c1cc(Br)c(N)cc1OC [BROMOPRIDE] .
Result: 13

Task: Cool, now N=C(N)NC(=O)Cc1c(Cl)cccc1Cl
Result: 4.5

Task: Cool, now COc1cc2c3cc1Oc1cc(ccc1O)C[C@@H]1c4c(cc(OC)c(O)c4Oc4ccc(cc4)C[C@@H]3N(C)CC2)CC[N+]1(C)C.[Cl-]
Result: 3.4

Task: Cool, now CCN(CCO)CCCC(C)Nc1ccnc2cc(Cl)ccc12 (stereo not given) [HYDROXYCHLOROQUINE]
Result: 11

----------
PROTOCOL_NOTES: clinical
SETUP_CONDITIONS: human, in vivo, iv, CL
Numbered stars: 1 amine (or outer) side, 2 acyl side, 3 side chain; on linkers, the order of the positions; unused ones are H or OH. Bridge positions count the residues as written; N and C are the ends. Square brackets hold non-standard residues; d marks the D form. Peptide text beside a SMILES is read from it. * marks the point of attachment. hTyr(3S-OH,4S-OH,3'-OSO3H) = N[C@H](C(=O)O)[C@H](O)[C@@H](O)c1ccc(O)c(OS(=O)(=O)O)c1; Orn(4R-OH,5R-OH) = O=C([C@H](C[C@@H](O)[C@@H](O)N[*:3])N[*:1])[*:2]; Pro(3S-OH,4S-Me) = C[C@H]1CN[C@H](C(=O)O)[C@H]1O; X1 = CCCCCOc1ccc(-c2cc(-c3ccc(C(=O)*)cc3)no2)cc1; Gln(3R-OH) = NC(=O)C[C@@H](O)[C@H](N)C(=O)O; Hyp = O=C(O)[C@@H]1C[C@@H](O)CN1
Label true (1) when clearance >= 1 mL/min/kg; otherwise false (0).

Some solved entries appear below for comparison.
>  <COMPOUND>
Nc1nc(O)c2ncn(COC(CO)CO)c2n1

>  <ASSIGNED_CATEGORY>
true (1)

$$$$
>  <COMPOUND>
CN1CCCC(n2nc(Cc3ccc(Cl)cc3)c3ccccc3c2=O)CC1 (configuration not stated)

>  <ASSIGNED_CATEGORY>
true (1)

$$$$
>  <COMPOUND>
NC(=O)c1ncn([C@@H]2O[C@H](CO)[C@@H](O)[C@H]2O)n1

>  <ASSIGNED_CATEGORY>
true (1)

$$$$
>  <COMPOUND>
O=C(O)P(=O)(O)O

>  <ASSIGNED_CATEGORY>
true (1)

$$$$
>  <COMPOUND>
CCCC1O[C@@H]2C[C@H]3[C@@H]4CCC5=CC(=O)C=C[C@]5(C)[C@H]4[C@@H](O)C[C@]3(C)[C@]2(C(=O)CO)O1 (some centres not stated) [BUDESONIDE]

>  <ASSIGNED_CATEGORY>
true (1)

$$$$
>  <COMPOUND>
CC1(C)C(/C=C/C=C/C=C/C=C2/N(CCCCS(=O)(=O)[O-])c3ccc4ccccc4c3C2(C)C)=[N+](CCCCS(=O)(=O)[O-])c2ccc3ccccc3c21.[Na+]

>  <ASSIGNED_CATEGORY>
true (1)

$$$$
>  <COMPOUND>
CO/N=C(\C(=O)N[C@@H]1C(=O)N2C(C(=O)O)=C(COC(C)=O)CS[C@H]12)c1csc(N)n1

>  <ASSIGNED_CATEGORY>
true (1)

$$$$
>  <COMPOUND>
NCCCNc1ccc2c(CNCCO)nn3c4c(O)ccc(O)c4c(=O)c1c23

>  <ASSIGNED_CATEGORY>
true (1)

$$$$
>  <COMPOUND>
CC(C)N(CCC(C(N)=O)(c1ccccc1)c1ccccn1)C(C)C (configuration not stated) [DISOPYRAMIDE]

>  <ASSIGNED_CATEGORY>
false (0)

$$$$
>  <COMPOUND>
CCCCCOc1ccc(-c2cc(-c3ccc(C(=O)N[C@H]4C[C@@H](O)[C@@H](O)NC(=O)[C@@H]5[C@@H](O)[C@@H](C)CN5C(=O)[C@H]([C@H](O)CC(N)=O)NC(=O)[C@H]([C@H](O)[C@@H](O)c5ccc(O)c(OS(=O)(=O)O)c5)NC(=O)[C@@H]5C[C@@H](O)CN5C(=O)[C@H]([C@@H](C)O)NC4=O)cc3)no2)cc1 [MICAFUNGIN] (X1-[Orn(4R-OH,5R-OH)]T[Hyp][hTyr(3S-OH,4S-OH,3'-OSO3H)][Gln(3R-OH)][Pro(3S-OH,4S-Me)]; lactam 1-C)

>  <ASSIGNED_CATEGORY>
false (0)

$$$$

Task: Quick check: does NC12CC3CC(CC(C3)C1)C2 have clearance greater than or equal to 1 mL/min/kg?
Result: true (1)

Task: Cool, now CCC(=O)O[C@]1(C(=O)SCF)[C@H](C)C[C@H]2[C@@H]3C[C@H](F)C4=CC(=O)C=C[C@]4(C)[C@@]3(F)[C@@H](O)C[C@@]21C [FLUTICASONE PROPIONATE]
Result: true (1)

Task: Cool, now Cc1nnc2n1-c1ccc(Cl)cc1C(c1ccccc1)=NC2
Result: false (0)

Task: Cool, now COc1cc2nc(N(C)CCCNC(=O)C3CCCO3)nc(N)c2cc1OC (configuration not stated)
Result: true (1)

Task: Cool, now CC(C)[C@@H](CC[C@@H](C)[C@H]1CC[C@H]2[C@@H]3[C@H](O)C[C@H]4C[C@@H](NCCCNCCCCN)CC[C@]4(C)[C@H]3CC[C@]12C)OS(=O)(=O)O
Result: true (1)

Task: Cool, now C[N+](C)([O-])CCCN1c2ccccc2CCc2ccccc21 [IMIPRAMINOXIDE]
Result: true (1)
